- Test system: Wolbachia pipientis
- protocol.details: Anti-Wolbachia Cell-Based Screen
- Format: functional
- Parameters: scale not given: in the data most compounds retested in dose-response had high values
- conditions: 5 µM
Out of some 48,000 compounds screened, about 13,000 (27%) showed an effect of 50% or more. The list shows a part of the results.

molecule	Percent Effect (%)
CCN(C)Cc1cccc(CNC(=O)NCCc2ccccn2)c1	112.6
CCCSCC(=O)NCc1cccc(CN(C)CC)c1	105
O=S(=O)(Nc1ncccc1F)c1cc(Cl)cc2c1OCC2	-5.525
COc1ncccc1C(=O)N1CCn2c(COCC3CC3)cnc2C1C (centres undefined)	-2.491
O=C(NCc1ccc(CN2CCCCC2)cc1)Nc1cccnc1	-23.63
COCc1cnc2n1CCN(C(=O)c1cnc3ccccc3c1)C2C (centres undefined)	-17.18
O=C(CN1CCCC1COc1ccccc1)NCc1ccccn1 (centres undefined)	90.25
CCCC(=O)NCc1cccc(C(=O)OC)c1	-9.94
COc1cccc(CSCC(=O)NCc2cccnc2)c1	3.69
O=C(CN1CCOCC1CC(=O)c1ccco1)NCc1ccccn1 (centres undefined)	-22.29
Cc1nc(-c2ccc(S(=O)(=O)N3CCC=C(F)C3)cc2)co1	3.194
Cc1ccc(OCCCNC(=O)C2(C)CC(=O)N3C=CC=CC3=N2)cc1 (centres undefined)	121.9
Cc1nc(COc2cccc(C#N)c2)no1	2.018
Cc1ccccc1OCCCC(=O)NCc1ccnc(O)c1	0.1065
COCc1cnc2n1CCN(C(=O)c1cn(C)c3ccccc13)C2C (centres undefined)	101.2
Cc1ccc(OCCCNC(=O)C(C)Sc2nncn2C)cc1 (centres undefined)	-12.11
CC(Cn1cc(Cl)cn1)C(=O)Nc1ccc(CN2CCCCCC2)cc1 (centres undefined)	106.4
Cc1csc(CN(CC2CCCO2)C(=O)c2cccnc2C)n1 (centres undefined)	-5.515
CCOc1ncccc1-c1cc2c(cc1C(N)=O)OCO2	2.212
CCN(CC)Cc1cc(C(=O)N2CCC3(CC2)NCCNC3=O)c(C)o1	-9.012
O=C(O)CSc1nnc(-c2ccco2)n1-c1ccccc1C(F)(F)F	-16
CN(CCC(F)(F)F)C(=O)[C@H]1CSCN1C(=O)OC(C)(C)C	-7.919
CCn1ccc(NC(=O)CN2C(=O)CC(C)(C)c3ccccc32)n1	127.7
Cc1nnc(N2CCC(CN(C)C(C)C)CC2)c(C#N)c1C	6.063
Cn1cc(S(=O)(=O)N2CCCC(Cn3cncn3)C2)cn1 (centres undefined)	7.015
COCCC(=O)N1CCCC2(CCC(=O)N(CCc3c[nH]cn3)C2)C1 (centres undefined)	0.09306
CCn1ccc(NC(=O)CN2C(=O)C(C)(C)c3ccccc32)n1	112.9
CCOCc1cnc2n1CCN(C(=O)c1cccc3c1OCCO3)C2C (centres undefined)	83.71
COCc1ccc(C(=O)N2CCCN(Cc3cscn3)CC2)cc1	110
O=C(c1ccc(Cl)o1)N1CCCN(Cc2cscn2)CC1	4.253
CCOCc1cnc2n1CCN(C(=O)c1ccccc1)C2C (centres undefined)	105.6
Cc1cnn(C(C)C2CC2)c1NC(=O)c1ccc(Cn2cnnn2)cc1 (centres undefined)	7.746
CCN(CC)c1ccc(NS(=O)(=O)c2cnn(CC)c2)cn1	-19.91
CCOCc1cnc2n1CCN(C(=O)Cc1ccco1)C2C (centres undefined)	-11.07
Cc1ccccc1OCCCNC(=O)C1(C)CC(=O)N2C=CC=CC2=N1 (centres undefined)	112.8
CCOCC(=O)NCC(CC)(OC)c1ccccc1 (centres undefined)	1.259
CN1CC[C@H]2CN(C(=O)c3ccc4sc5c(c4c3)CCNC5=O)C[C@H]21	3.711
O=C(CSCc1ccccn1)NCC1CCN(C2CC2)C1 (centres undefined)	21.4
O=C(NCCNc1ncccn1)NCc1cccc(OC(F)F)c1	-1.067
Cc1ccc(C(=O)N2CCCN(Cc3cscn3)CC2)o1	108
O=C(CN1CCCC1c1nc2cc(F)ccc2[nH]1)NCc1ccccn1 (centres undefined)	-7.361
CCN1C(=O)C(C)(C)c2cc(NC(=O)c3ccco3)ccc21	-4.693
O=C(CSCc1ccncc1)NCC1CCN(C2CC2)C1 (centres undefined)	13.02
CCOCc1cnc2n1CCN(C(=O)c1ccoc1C)C2C (centres undefined)	98.54
CCOCc1cnc2n1CCN(C(=O)Cc1cccs1)C2C (centres undefined)	1.059
O=C(NCCn1cc(Cl)cn1)C1CCN(C(=O)C2CC2)CC1	13.04
CCN(C)Cc1cccc(CNC(=O)CSCc2ccncc2)c1	124.3
CCc1nc(C2CCCN2CCCS(=O)(=O)c2ccccc2)no1 (centres undefined)	0.9329
CCc1ccc(C2CCCCCN2C(=O)CNC(=O)NC2CC2)o1 (centres undefined)	-27.64
